Where do the numbers come from? From paper PMC12389006.

# method: Pharmacokinetic study in rats, LC-MS/MS of plasma
# Type: in vivo, Wistar rats
# condition_label: male, Wistar, plasma; rat, 20 mg/kg oral
reported_metric: half-life (h)
Numbers only, in h.

// query half-life value for entry CCc1cc2c(cc1N1CCC(N3CCOCC3)CC1)C(C)(C)c1[nH]c3cc(C#N)ccc3c1C2=O.Cl
15.4

###

# method: Pharmacokinetic study in rats, LC-MS/MS of plasma
# Type: in vivo, Wistar rats
# condition_label: male, Wistar, plasma; rat, 20 mg/kg oral
reported_metric: AUC(0-inf) (ng·h/mL)
Answers are plain numbers, in ng·h/mL.

Can you share its AUC(0-inf)? I mean this compound: CCc1cc2c(cc1N1CCC(N3CCOCC3)CC1)C(C)(C)c1[nH]c3cc(C#N)ccc3c1C2=O.Cl [Alectinib]
11800
